assay: chemical genetic growth profiling, strain panel (AID 1159580);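 also: tested at 20 µM; growth read once vehicle control cultures reached saturation at 30 °C; 1 = growth at the plate median or of vehicle wells; lower values mean less growth of the strain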; conditions: S. cerevisiae deletion strains, growth OD, locus YDR477W, strain SNF1, hits give low values
Screen size: about 5,500 compounds; about 2,000 (36%) were called active. Another 18% or so got no clear call; they are omitted. The list shows a part of the results.
// classify: if (normalized growth < 0.9) fulfilled else not fulfilled

{"Molecule": "O=C(Nc1ccccc1)Nc1ccc(Cl)cc1[N+](=O)[O-]", "Label": "not fulfilled"}
{"Molecule": "Cc1c(C)c(C)c(C(O)c2ccccc2)c(C)c1C (stereo unspecified)", "Label": "fulfilled"}
{"Molecule": "O=C(NNc1ccc(F)cc1F)c1sccc1Cl", "Label": "not fulfilled"}
{"Molecule": "O=C1Nc2ccccc2/C1=C/c1ccc(C(F)(F)F)cc1Cl", "Label": "not fulfilled"}
{"Molecule": "CN(C)C=Nc1nnc(Sc2nc3c(Cl)cc(Cl)cc3s2)s1", "Label": "not fulfilled"}
{"Molecule": "O=[N+]([O-])c1cc(Cl)cc([N+](=O)[O-])c1Nc1ccccc1", "Label": "not fulfilled"}
{"Molecule": "Cc1ccc(NNC(=O)c2cccs2)cc1Cl", "Label": "not fulfilled"}
{"Molecule": "c1ccc(-c2nnc(-c3ccccn3)nc2-c2ccccc2)cc1", "Label": "fulfilled"}
{"Molecule": "O=C1Nc2ccccc2/C1=C\\c1ccc(Cl)cc1", "Label": "fulfilled"}
{"Molecule": "O=S(=O)(CS(=O)(=O)Oc1ccc(Cl)c(Cl)c1)Oc1ccc(Cl)c(Cl)c1", "Label": "not fulfilled"}

====

experiment: chemical genetic growth profiling, strain panel (AID 1159580); conditions: S. cerevisiae deletion strains, growth OD, locus YDR318W, strain mcm21
Out of some 5,500 compounds screened, about 2,000 (36%) were called active. Another 18% or so got no clear call; they are omitted. Cut-off read from the data, not from the text of the source: active = normalized growth mostly below about 0.91 (no sharp cut-off); inconclusive = no clear call, values can overlap the other calls; inactive = mostly above about 0.92. Some of the results follow.
Possible outcomes: true (1) = active, false (0) = inactive

{"Molecule": "CC[n+]1c(-c2ccccc2)c2cc(N)ccc2c2ccc(N)cc21", "Label": "true (1)"}
{"Molecule": "Cc1ccccc1OCC(O)CO (stereo not drawn)", "Label": "false (0)"}
{"Molecule": "CCC1OC(=O)[C@H](C)C(=O)[C@H](C)[C@@H](OC2O[C@H](C)C[C@H](N(C)C)[C@H]2O)[C@](C)(OC)C2(CCCn3cnc(-c4cccnc4)c3)C[C@@H](C)C(=O)[C@H](C)[C@H]3N(C2)C(=O)O[C@]13C (stereo partly drawn)", "Label": "false (0)"}

====

assay: chemical genetic growth profiling, strain panel (AID 1159580); conditions: S. cerevisiae deletion strains, growth OD, locus YMR231W, strain pep5, hits give low values
The campaign covered roughly 5,500 compounds. About 2,000 (36%) were called active. About 18% were inconclusive and are not listed. The list shows a part of the results.
Measured normalized growth, listed per entry.

{"Compound": "COc1cc(OC)c2c(=O)c(O)c(-c3ccc(OC)c(OC)c3)oc2c1", "normalized growth": "0.973 (inactive)"}
{"Compound": "CC1(C)C(=O)C=C[C@@]2(C)C1C=C[C@]1(C)C2CC[C@@]2(C)[C@H](c3ccoc3)OC(=O)C3OC321 (some centres not stated)", "normalized growth": "0.964 (inactive)"}
{"Compound": "COc1ccc2c(c1)CCC1C2CCC2(C)C1C[C@@H](O)C2O (some centres not stated)", "normalized growth": "0.998 (inactive)"}
{"Compound": "COc1ccc(-c2oc3c(CC=C(C)C)c(O[C@@H]4O[C@H](CO)[C@@H](O)[C@H](O)[C@H]4O)cc(O)c3c(=O)c2O[C@@H]2O[C@@H](C)[C@H](O)[C@@H](O)[C@H]2O)cc1", "normalized growth": "1 (inactive)"}
{"Compound": "C[C@@H]1O[C@@H](OC[C@H]2OC(Oc3c(-c4ccc(OCCO)c(OCCO)c4)oc4cc(OCCO)cc(O)c4c3=O)[C@H](O)[C@@H](O)[C@@H]2O)[C@H](O)[C@H](O)[C@H]1O (some centres not stated)", "normalized growth": "0.971 (inactive)"}
{"Compound": "COc1cc(O)c2c(=O)c(O)c(-c3ccc(O)c(O)c3)oc2c1", "normalized growth": "0.874 (active)"}
{"Compound": "CC1(C)C(=O)C=C[C@@]2(C)C1C[C@@H](O)[C@]1(C)C2CC[C@@]2(C)[C@H](c3ccoc3)OC(=O)[C@H]3O[C@]321 (some centres not stated)", "normalized growth": "0.992 (inactive)"}

====

test: chemical genetic growth profiling, strain panel (AID 1159580);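 also: tested at 20 µM; growth read once vehicle control cultures reached saturation at 30 °C; 1 = growth at the plate median or of vehicle wells; lower values mean less growth of the strain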; conditions: S. cerevisiae deletion strains, growth OD, locus YNL322C, strain KRE1 (second series), hits give low values
The whole screen tested about 5,500 compounds, of which about 2,000 (36%) were called active. About 18% were inconclusive and are not listed. The list shows a part of the results.

{"Molecule": "CC1(C)C2CC(=O)[C@]3(C)C(CC[C@@]4(C)[C@H](c5ccoc5)OC(=O)C5OC543)[C@@]2(C)[C@@H](O)C[C@H]1O (some centres undefined)", "normalized growth": 1.03}
{"Molecule": "CC1(C)C(=O)C=C[C@@]2(C)C1CC(=O)[C@]1(C)C2CC[C@@]2(C)[C@H](c3ccoc3)OC(=O)[C@H]3O[C@]321 (some centres undefined)", "normalized growth": 0.958}
{"Molecule": "CC1(C)C=CC(=O)[C@@]2(C)C1CC(=O)[C@]1(C)C2CC[C@@]2(C)[C@H](c3ccoc3)OC(=O)C3OC321 (some centres undefined)", "normalized growth": 0.989}
{"Molecule": "CCC(c1ccc(O)cc1)C(CC)c1ccc(O)cc1 (centres undefined)", "normalized growth": 0.985}
{"Molecule": "CC1(C)O[C@H]2CC(=O)OC[C@]23[C@H]2CC[C@@]4(C)[C@H](c5ccoc5)OC(=O)[C@H]5O[C@]54[C@]2(C)C(=O)C[C@@H]13", "normalized growth": 0.959}
{"Molecule": "CCC(N)C(O)c1ccc(O)c(O)c1 (centres undefined)", "normalized growth": 0.985}
{"Molecule": "CCOCN(C(=O)CCl)c1c(C)cccc1CC", "normalized growth": 0.98}
{"Molecule": "CC/C(=C(/CC)c1ccc(O)cc1)c1ccc(O)cc1", "normalized growth": 1.03}
{"Molecule": "CN(C)c1ccc2nc3ccc(=[N+](C)C)cc-3sc2c1", "normalized growth": 1.04}

====

assay: chemical genetic growth profiling, strain panel (AID 1159580);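 also: tested at 20 µM; growth read once vehicle control cultures reached saturation at 30 °C; 1 = growth at the plate median or of vehicle wells; lower values mean less growth of the strain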; details: S. cerevisiae deletion strains, growth OD, locus YJR016C, strain ILV3, hits give low values
Screen size: about 5,500 compounds; about 2,000 (36%) were called active. Not shown: some 18% with an inconclusive outcome. Some of the results follow.

{"Compound": "OC(COc1ccc(F)cc1)(c1ccccc1)c1ccccc1", "normalized growth": 0.959}
{"Compound": "CCCCNC(=S)N/N=C\\c1cc(Cl)cc(Cl)c1O", "normalized growth": 0.922}
{"Compound": "O=C1Nc2ccccc2/C1=C/c1ccc(C(F)(F)F)cc1Cl", "normalized growth": 0.98}
{"Compound": "Cc1cc(Cl)ccc1NNC(=O)c1sccc1Cl", "normalized growth": 0.898}
{"Compound": "CCOC(=O)N/N=C\\c1cc(Cl)cc(Cl)c1O", "normalized growth": 0.935}
{"Compound": "O=S(=O)(CS(=O)(=O)Oc1ccc(Cl)c(Cl)c1)Oc1ccc(Cl)c(Cl)c1", "normalized growth": 0.951}
{"Compound": "Oc1c(Br)cc(Br)cc1/C=N\\n1cnnc1", "normalized growth": 0.951}
{"Compound": "COc1ccc(/C=C2/C(=O)Nc3ccccc32)cc1", "normalized growth": 0.878}
{"Compound": "Cc1nnc2n1N=C(c1ccc(CC(C)C)cc1)C(C)S2 (stereo not drawn)", "normalized growth": 0.98}
{"Compound": "Cc1c(C)c(C)c(C(O)c2ccccc2)c(C)c1C (stereo not drawn)", "normalized growth": 1}
{"Compound": "CC(NC(=S)N/N=C\\c1ccccc1O)c1ccccc1 (stereo not drawn)", "normalized growth": 0.977}
{"Compound": "Cc1cc(Cl)ccc1NNC(=O)c1sccc1Br", "normalized growth": 0.935}
{"Compound": "O=C1Nc2ccccc2/C1=C\\c1cccc([N+](=O)[O-])c1", "normalized growth": 0.967}
{"Compound": "O=C1Nc2ccccc2/C1=C/c1ccc(Oc2ccccc2)nc1", "normalized growth": 0.967}
{"Compound": "COc1ccccc1NC(=S)N/N=C\\c1ccccc1O", "normalized growth": 0.979}
{"Compound": "O/N=C(/c1ccc(Cl)cc1)c1cc2ccccc2o1", "normalized growth": 0.941}
{"Compound": "Oc1c(Br)cc(Br)cc1C=Nc1ccccn1", "normalized growth": 0.974}
{"Compound": "OC1(C(F)(F)F)CC(c2ccc3ccccc3c2)=NN1 (stereo not drawn)", "normalized growth": 0.162}

====

assay: chemical genetic growth profiling, strain panel (AID 1159580);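 also: tested at 20 µM; growth read once vehicle control cultures reached saturation at 30 °C; 1 = growth at the plate median or of vehicle wells; lower values mean less growth of the strain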; details: S. cerevisiae deletion strains, growth OD, locus YJL164C, strain tpk1
Out of some 5,500 compounds screened, about 2,000 (36%) were called active. Not shown: some 18% with an inconclusive outcome. No stated cut-off is given here; in the data, active means normalized growth mostly below about 0.91 (no sharp cut-off); inconclusive means no clear call, values can overlap the other calls; inactive means mostly above about 0.92. Some of the results follow.
Outcomes: active, inactive

{"Molecule": "CC(=O)Oc1ccc2c(c1C(C)C)CCC1C(C)(C)CCC[C@]21C (stereo partly specified)", "Label": "inactive"}
{"Molecule": "CC1(C)C(=O)C=C[C@@]2(C)C1C=C[C@]1(C)C2CC[C@@]2(C)[C@H](c3ccoc3)OC(=O)C3OC321 (stereo partly specified)", "Label": "inactive"}
{"Molecule": "COc1ccccc1/C=C\\C(=O)O", "Label": "inactive"}
{"Molecule": "CC(=O)O[C@]1(C(C)=O)CCC2C3C=C(Cl)C4=CC(=O)[C@@H]5C[C@@H]5[C@]4(C)C3CC[C@@]21C (stereo partly specified)", "Label": "inactive"}
{"Molecule": "NC(=O)CN1CCCC1=O", "Label": "inactive"}
{"Molecule": "CC1(C)C(=O)C=C[C@@]2(C)C1C[C@@H](O)[C@]1(C)C2CC[C@@]2(C)[C@H](c3ccoc3)OC(=O)[C@H]3O[C@]321 (stereo partly specified)", "Label": "inactive"}
{"Molecule": "COC(=O)[C@]1(C)CCC[C@]2(C)c3ccc(C(C)C)cc3C(=O)CC12 (stereo partly specified)", "Label": "inactive"}
{"Molecule": "Cc1ccccc1OCC(O)CO (stereo unspecified)", "Label": "inactive"}
{"Molecule": "O=C(O)C1=C[C@@H](O)[C@@H](O)[C@H](O)C1", "Label": "inactive"}
{"Molecule": "COC1=CC(=O)C(O)=C/C1=C\\C=C\\c1ccccc1", "Label": "active"}
{"Molecule": "COC1=CC(=O)C(C(=O)c2ccccc2)=CC1=O", "Label": "inactive"}

Data provenance: PubChem BioAssay AID1159580
